The entries below are paired with their reported XC50.
Test system: Plasmodium falciparum
Test: GSK_TCMDC: Inhibition of Plasmodium falciparum 3D7 in whole erythrocytes, using parasite LDH activity as an index of growth.
Format: functional, organism-based
Conditions: Plasmodium falciparum, 3D7
// note: answer is a bare numeric in nM

Some solved entries appear below for comparison.
MOLECULE	XC50 [nM]
Cc1cccc2nc(-c3ccc(-c4cccc(NC(=O)C(C)CN(C)C)c4)s3)[nH]c12 (stereo not given)	724
Cc1ccc(CCNCC(O)c2cccc(C(F)(F)F)c2)cc1 (stereo not given)	868
O=C(Nc1ccc(Cl)cc1)Nc1ccc(-c2cccc(-c3nc4cc(F)ccc4[nH]3)c2)cc1	292

# input for lookup
For this molecule ( `Cc1cc(N[C@@H](CC(C)C)C(=O)NCCc2ccccc2)nc(Nc2ccccc2)n1` ), measured XC50 is 816

* * *

# maps each entry to its XC50
Test system: Plasmodium falciparum
Test: GSK_TCMDC: Inhibition of Plasmodium falciparum 3D7 in whole erythrocytes, using parasite LDH activity as an index of growth.
Assay type: functional, organism-based
Details: Plasmodium falciparum, 3D7
Write it as a number; the unit nM goes unstated.

COMPOUND	READOUT_VALUE
CCC(C)c1ccc(O)c(NC(=O)c2cncc(Br)c2)c1 (centres undefined)	804
CN1CCN(CC2(Nc3nccc(NCCc4cn(C)c5ccccc45)n3)CCCCC2)CC1	1810
Cn1cc(CCNc2ccnc(NCCc3coc4ccccc34)n2)c2ccccc21	1060

// sample `COc1ccc(NCCCNc2ccnc3ccccc23)cc1` , its XC50 was 966

* * *

System: Plasmodium falciparum
Test: GSK_TCMDC: Inhibition of Plasmodium falciparum 3D7 in whole erythrocytes, using parasite LDH activity as an index of growth.
Assay type: functional, organism-based
Settings: Plasmodium falciparum, 3D7
The entries below are paired with their reported XC50.
Answer in nM, number only, no unit symbol.

COMPOUND	UNIT_NAME	XC50
O=C(c1cccs1)N1N=C(c2cccs2)CC1c1cccc([N+](=O)[O-])c1 (centres undefined)	nM	820
COc1ccc(S(=O)(=O)N2CCOCC2)cc1NC(=O)c1cc2ccccc2o1	nM	795
NCCCNc1nc(Nc2cccc(C(N)=O)c2)c2c(=O)[nH]ccc2n1	nM	594

Now consider a different compound.
Summary for this compound, `C=CC[C@H](C[C@H](O)[C@H](Cc1ccccc1)NC(=O)c1ccc(-n2cccn2)cc1)C(=O)NC1CCCCC1` : XC50 is 810

* * *

System: Plasmodium falciparum
Assay: GSK_TCMDC: Inhibition of Plasmodium falciparum 3D7 in whole erythrocytes, using parasite LDH activity as an index of growth.
Format: functional, organism-based
Settings: Plasmodium falciparum, 3D7
QUANTITY_NAME: XC50 (nM)
A number alone suffices; assume nM.

Study these solved cases before continuing.
MOLECULE	READOUT_VALUE
COc1cc(C=NNc2cc(C)nc3c(OC)cccc23)cc(OC)c1OC	887
Cc1cc(F)ccc1Nc1nc(N(C)c2ccccc2)c2cc(OCCN(C)C)ccc2n1	786
COc1ccc(O)cc1/C=N/Nc1ccnc2cc(Cl)ccc12	544
COc1cc(NC(=O)N2CCc3ccc(OCCC4CCCN4C)cc32)cc(C(F)(F)F)c1 (stereo not given)	714

Below: the item to evaluate.
The recorded XC50 for `CC(=O)Nc1ccc2[nH]cc(C3CCN(CC4CCN(C(=O)/C=C/c5ccc(Cl)c(Cl)c5)CC4)CC3)c2c1` is 723

* * *

As shown below, each of these compounds has a reported XC50 value.
Test system: Plasmodium falciparum
Assay: GSK_TCMDC: Inhibition of Plasmodium falciparum 3D7 in whole erythrocytes, using parasite LDH activity as an index of growth.
Format: functional, organism-based
Conditions: Plasmodium falciparum, 3D7
Give the value, in units of nM, as a plain number.

Examples with their reported XC50 follow.
COMPOUND	QUANTITY_NAME	READOUT_VALUE
CN(C)CCN(Cc1ccccc1)c1ccc([N+](=O)[O-])cc1C(F)(F)F	XC50	776
CN(C)CCNc1ncnc2c1[nH]c1ccc(Cl)cc12	XC50	601

Next, consider the following compound.
Form field XC50, entry COc1ccc2cc(C(c3nnnn3CC3CCCO3)N3CCc4ccccc43)c(=O)[nH]c2c1 (stereo not drawn) : 795

* * *

System: Plasmodium falciparum
Assay: GSK_TCMDC: Inhibition of Plasmodium falciparum 3D7 in whole erythrocytes, using parasite LDH activity as an index of growth.
Type: functional, organism-based
Conditions: Plasmodium falciparum, 3D7
Note to self: use label 1 only for XC50 readings below 0.8 µM; a reading exactly at 0.8 µM still gets label 0.

See these solved cases before continuing.
COMPOUND	GROUP_LABEL
CC(C)(Cc1ccc(Cl)cc1)NCCCCCCNCCc1ccc(O)c(O)c1	label 0
O=C(Nc1cc(Cl)ccc1Cl)N[C@H]1CCN(CCCCCNC(=O)C2CC2c2ccc(Cl)c(Cl)c2)C1 (some centres not stated)	label 1
O=C(Nc1cccc2ccccc12)N1CCc2cc3nccc(N4CCN5CCC[C@H]5C4)c3cc21	label 0

Quick check: does COc1cc(CNCCCNc2cc(=O)c3ccccc3[nH]2)c2c(c1)C(C)CN2C(=O)OC(C)(C)C (configuration not stated) have XC50 under 0.8 µM?
label 1

I wonder whether `COc1cccc(CNC[C@@H](O)[C@H](Cc2ccccc2)NC(=O)c2cc(N3CCCC3=O)c3[nH]cc(C(C)C)c3c2)c1` has XC50 below 0.8 µM. Can you tell?
label 1

Does the reported XC50 of the following compound sit strictly below 0.8 µM? O=C(/C=C/c1ccc(Cl)c(Cl)c1)N1CCC(C(O)CN2CCC(c3c[nH]c4ccccc34)CC2)CC1 (configuration not stated)
label 0

* * *

System: Plasmodium falciparum
Test: GSK_TCMDC: Inhibition of Plasmodium falciparum 3D7 in whole erythrocytes, using parasite LDH activity as an index of growth.
Format: functional, organism-based
Conditions: Plasmodium falciparum, 3D7
Overview of reported log10 of XC50 across a group of compounds:
Short version: log10 scale, XC50, µM.

Record excerpt, results attached:
COMPOUND	log10 of XC50
Cc1cc(NC(=O)NCCN2CCC(NS(=O)(=O)c3ccccc3Cl)C2)c2ccccc2n1 (centres undefined)	-0.09
CCCC(N)C(=O)NC1CCN(c2c(F)c(N)c3c(=O)c(C(=O)O)cn4c3c2Oc2ccccc2-4)C1 (centres undefined)	-0.44
CN1CCC(NCc2ccc(-c3cccc(S(=O)(=O)NCc4ccccc4)c3)cc2)CC1	-0.49
CN(C)c1ccnc2ccc(NC(=O)Nc3ccnc4ccccc34)cc12	-0.88
CC(=O)Nc1ccc(CN2CCC(NC(=O)c3ccc(-c4cccc(F)c4)s3)CC2)cc1	0.16

# `Nc1nc(N)c2c3c(ccc2n1)CCC3` with Plasmodium falciparum: log10 of XC50 is -0.03

Tested system Plasmodium falciparum; log10 of XC50 recorded for CCCCCN1CCCCC(NS(=O)(=O)c2ccc(C(=O)Nc3cccc(C(F)(F)F)c3)cc2)C1 (centres undefined) was -0.12

Hey, Plasmodium falciparum data for O=C(/C=C/c1cccs1)NCC(NCCCNc1cc(=O)c2ccccc2[nH]1)c1cc(Br)cc(Br)c1 (centres undefined) : log10 of XC50 came out at -0.05

The compound `Cc1cccc2nc(-c3ccc(-c4ccc(CNCCCNS(C)(=O)=O)cc4)s3)[nH]c12` on Plasmodium falciparum: log10 of XC50 was 0.00

Bench note, Plasmodium falciparum: entry `CN(C)CCCN1CCN(Cc2ccc(-c3ccc(-c4nc5ccccc5[nH]4)s3)cc2)CC1` , its log10 of XC50 = -0.09

* * *

System: Plasmodium falciparum
Assay: GSK_TCMDC: Inhibition of Plasmodium falciparum 3D7 in whole erythrocytes, using parasite LDH activity as an index of growth.
Assay type: functional, organism-based
Conditions: Plasmodium falciparum, 3D7
Listing: XC50 of selected compounds
Hi, when you answer, please include the unit after the number. Thanks!

Use the examples below as a reference point.
COMPOUND	XC50
Nc1c2c(nc3cc(NC(=O)c4ccc([N+](=O)[O-])cc4)ccc13)CCCC2	475 nM
CCOC(=O)c1c(C)n(-c2ccc(Cl)cc2)c2ccc(OC(=O)C=Cc3ccccc3)cc12	698 nM
CCCCCCNc1c2ccccc2nc2ccccc12	949 nM
Nc1nc2c(ncn2OC[C@H](CO)OCP(=O)(O)O)c(=O)[nH]1	341 nM
COc1cccc(NC(=O)N2CCOC(CCN3CCC4(CCc5ccccc54)CC3)(c3ccc(Cl)c(Cl)c3)C2)c1 (configuration not stated)	1010 nM
CCN(CC)Cc1cc(NC(=O)c2ccccc2O)ccc1Oc1ccc(Cl)cc1	827 nM
Cc1cc(NC(=O)NCCN2CCC(NS(=O)(=O)c3cccc(Br)c3)C2)c2ccccc2n1 (configuration not stated)	606 nM
CC[C@H](NC(=O)c1c(N)c(-c2sccc2Cl)nc2ccccc12)c1ccccc1	912 nM
COc1ccc2[nH]c(C)cc(=NN=Cc3ccccc3Cl)c2c1	601 nM
CCN(CC)CCNC(=O)c1ccc(N/C=C2\C(=O)Nc3ccc(S(=O)(=O)Cc4c(Cl)cccc4Cl)cc32)cc1	840 nM

Value of XC50 reported for the compound `OCC1CCN(Cc2ccc(-c3ccc(-c4nc5cc(F)ccc5[nH]4)s3)cc2)CC1` is 850 nM

XC50 for `CCCCCCCN1CC[C@@H](C[C@H](N)Cc2ccnc3ccc(OC)cc23)[C@@H](CC)C1` is 1070 nM

XC50 reading for `CC(=O)Oc1c(C2CCN(CCCCNC(=O)c3ccc(-c4ccc(C#N)cc4)cc3)CC2)ccc2c1CCCC2` : 1130 nM

# XC50 of `O=C(C=Cc1ccc(-c2ccccc2)cc1)N1CCC(CCN2CCC(c3c[nH]c4ccccc34)CC2)CC1` = 1120 nM

// `COc1ccc(-n2ccnc2SCC(=O)Nc2cc(C(F)(F)F)ccc2Cl)c(OC)c1` : XC50 value = 35 nM

Input CCNc1cc(C(=O)N[C@@H](Cc2ccccc2)[C@H](O)CNC2CC3CCC2C3)cc(N2CCCCS2(=O)=O)c1 (some centres not stated) . Output XC50: 237 nM

// `Cc1cc(N2CCN(C)CC2)nc2ccc(NC(=O)Cc3cccc(C(F)(F)F)c3)cc12` : XC50 value = 737 nM

Reported XC50 for `O=C(/C=C/c1ccc(Cl)c(Cl)c1)NCCCCCN1CCN(C(=O)Nc2cccc(F)c2)CC1` was 874 nM

Entry `Cc1nn(-c2ccc(Cl)cc2)c2[nH]c(CN3CCN(c4cccc(Cl)c4)CC3)cc(=O)c12` , XC50 reported as 240 nM
